Quick reference for GI50 among some molecules
- System: Ba/F3-CDM cells (Ba/F3 transfected with CD8-MerTK)
- METHOD SUMMARY: In cell MER kinase assay, Ba/F3-CDM cell proliferation without IL-3 (Celltiter-Glo, GI50)
- Type: cell-based, murine
- CONDITION CONTEXT: 48 hours, read-out: Cell growth inhibition (GI50)

CC(c1ccc(-c2ccc(CO[C@H]3CN(C)C[C@@H]3NC(=O)c3cc(-c4cnn(C)c4)cnc3N)cc2)cc1)N1CCN(CCO)CC1 (stereo partly shown) = < 100 nM
CN(C)C1CCN(Cc2ccc(-c3ccc(CO[C@H]4CCC[C@@H]4NC(=O)c4cc(-c5cnn(C)c5)cnc4N)cc3)cc2)C1 (stereo partly shown) = < 100 nM

Ask | # GI50 lookup, item CN1CCN(Cc2ccc(-c3ccc(CO[C@H]4CCC[C@@H]4NC(=O)c4cc(-c5ccc(CN6CCOCC6)cc5)cnc4N)cc3)cc2)CC1
Reply | < 100 nM

Ask | Find the recorded GI50 belonging to CC1CN[C@@H](C)CN1Cc1ccc(-c2ccc(CO[C@H]3CCC[C@@H]3NC(=O)c3cc(-c4cnn(C)c4)cnc3N)cc2)cc1 (stereo partly shown) and report it.
Reply | 100 to 500 nM

Ask | Name the recorded GI50 for CN1CCN(Cc2ccc(-c3ccc(CO[C@H]4CN(C)C[C@@H]4NC(=O)c4cc(-c5cnn(C)c5)cnc4N)cc3)cc2C(F)(F)F)CC1 .
Reply | < 100 nM

Ask | Request the reported GI50 associated with CN1CCN(Cc2ccc(-c3ccc(CO[C@H]4CCC[C@@H]4NC(=O)c4nc(-c5cnn(C)c5)cnc4N)cc3)cc2)CC1
Reply | < 100 nM

Ask | Recorded GI50 for CN1CCN(Cc2ccc(-c3ccc(CO[C@H]4COC[C@@H]4NC(=O)c4cc(-c5cnn(C)c5)cnc4N)cc3)cc2)CC1 , please?
Reply | < 100 nM

Ask | # input molecule: Cn1cc(-c2cnc(N)c(C(=O)N[C@H]3CCC[C@@H]3OCc3ccc(-c4ccc(CN5CCC(O)CC5)cc4)cc3)c2)cn1 ; wanted: its GI50
Reply | > 1000 nM

Ask | I would be grateful if you could share the reported GI50 for CN1CCN(CCc2ccc(-c3ccc(CO[C@H]4CCC[C@@H]4NC(=O)c4cc(-c5cnn(C)c5)cnc4N)cc3)cc2)CC1 .
Reply | < 100 nM

Ask | GET /values?readout=GI50&item= C[C@H](c1ccc(-c2ccc(CO[C@H]3CCC[C@@H]3NC(=O)c3cc(-c4cnn(C)c4)cnc3N)cc2)cc1)N1CCN(C)CC1
Reply | < 100 nM

Ask | Name the reported GI50 value associated with the molecule CCc1cc(CO[C@H]2CNC[C@@H]2NC(=O)c2cc(-c3ccc(NS(C)(=O)=O)cc3)cnc2N)ccc1C
Reply | > 1000 nM

Ask | Quick one: GI50 for CC(c1ccc(-c2ccc(CO[C@H]3CCC[C@@H]3NC(=O)c3cc(-c4cnn(C)c4)cnc3N)cc2)cc1)N1C[C@@H](C)N(C)[C@@H](C)C1 (stereo partly shown) ?
Reply | < 100 nM

Ask | Any idea what GI50 was measured for CCC1CN(Cc2ccc(-c3ccc(CO[C@H]4CCC[C@@H]4NC(=O)c4cc(-c5cnn(C)c5)cnc4N)cc3)cc2)CCN1C (stereo partly shown) ?
Reply | < 100 nM

Values from patent US10947215B2
